Source listed as patent US20220332795A1.

molecular target: T1, recombinant biotinylated human CD71 extracellular domain (human, UniProt P02786 89-760, biotinylated); test: solution ELISA, signal ratio to HSA
T1 construct: extracellular domain; also called hCD71; huCD71 ECD
T1 sequence (P02786 other isoform, or with tags, fused parts or gaps): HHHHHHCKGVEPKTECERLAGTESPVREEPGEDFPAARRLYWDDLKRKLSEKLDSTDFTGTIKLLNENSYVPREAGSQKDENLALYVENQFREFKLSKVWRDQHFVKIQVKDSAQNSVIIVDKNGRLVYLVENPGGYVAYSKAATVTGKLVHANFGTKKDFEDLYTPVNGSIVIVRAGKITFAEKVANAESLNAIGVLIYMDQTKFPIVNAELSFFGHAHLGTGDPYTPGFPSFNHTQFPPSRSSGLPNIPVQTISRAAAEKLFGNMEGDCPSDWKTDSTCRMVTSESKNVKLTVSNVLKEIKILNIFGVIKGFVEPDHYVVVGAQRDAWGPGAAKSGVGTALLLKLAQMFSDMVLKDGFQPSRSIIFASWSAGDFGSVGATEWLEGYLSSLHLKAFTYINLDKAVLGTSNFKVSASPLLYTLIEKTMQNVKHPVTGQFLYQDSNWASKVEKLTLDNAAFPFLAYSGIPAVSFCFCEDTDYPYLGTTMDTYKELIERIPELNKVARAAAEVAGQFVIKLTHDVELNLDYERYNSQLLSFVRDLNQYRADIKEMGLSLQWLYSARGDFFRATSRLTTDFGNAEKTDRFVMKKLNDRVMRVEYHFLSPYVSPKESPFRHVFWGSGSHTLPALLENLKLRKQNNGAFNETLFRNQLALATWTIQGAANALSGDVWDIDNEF
REPORTED_PROPERTY: hCD71:HSA

Q. Would you kindly share the measured hCD71:HSA for SEQ ID NO 193 (designed binder, FN3 domain) MLPAPKNLVVSRVTEDSARLSWTAPDAAFDSFYIAYAEPRPDGEAISLSVPGSERSYDLTGLKPGTEYSVLIHGVKGGLLSSPLIANFTT ?
A. 61.2

Q. I would be grateful if you could share the reported hCD71:HSA for SEQ ID NO 132 (designed binder, FN3 domain) MLPAPKNLVVSRVTEDSARLSWTAPDAAFDSFFIPYAEPSPTGEAIVLTVPGSERSYDLTGLKPGTEYSVLIHGVKGGLLSSPLSAHFTT .
A. 43.2

Q. Need hCD71:HSA of SEQ ID NO 141 (designed binder, FN3 domain) MLPAPKNLVVSRVTEDSARLSWTAPDAAFDSFYIAYAEPRPDGEAIFLGVPGSERSYDLTGLKPGTEYSVLIHGVKGGLLSSPLIAFFTT , thanks.
A. 37

I: SEQ ID NO 198 (designed binder, FN3 domain) MLPAPKNLVVSRVTEDSARLSWTAPDAAFDSFYIAYAEPRPDGEAIILEVPGSERSYDLTGLKPGTEYSVLIHGVKGGLLSSPLVAYFTT
II: SEQ ID NO 178 (designed binder, FN3 domain) MLPAPKNLVVSRVTEDSARLSWTAPDAAFDSFYIAYAEPRPDGEAIQLQVPGSERSYDLTGLKPGTEYSVLIHGVKGGLLSSPLSAIVTT
III: SEQ ID NO 117 (designed binder, FN3 domain) MLPAPKNLVVSRVTEDSARLSWTAPDAAFDSFYIAYAEPRPDGEAITLDVPGSERSYDLTGLKPGTEYSVLIHGVKGGLLSSPLSAIFTT
Q. # ascending order, key=hCD71:HSA Write the labels in rank order as requested.
A. II, III, I

a: SEQ ID NO 109 (designed binder, FN3 domain) MLPAPKNLVVSRVTEDSARLSWTAPDAAFDSFHISYEEDYTFGEAIYLRVPGSERSYDLTGLKPGTEYRVVIGGVKGGWFSEPLLAAFTT
b: SEQ ID NO 196 (designed binder, FN3 domain) MLPAPKNLVVSRVTEDSARLSWTAPDAAFDSFYIAYAEPRPDGEAIVLWVPGSERSYDLTGLKPGTEYSVLIHGVKGGLLSSPLRASFTT
c: SEQ ID NO 169 (designed binder, FN3 domain) MLPAPKNLVVSRVTEDSARLSWTAPDAAFDSFYIAYAEPRPDGEAILLLVPGSERSYDLTGLKPGTEYSVLIHGVKGGLLSSPLSAVFTT
Q. I would appreciate it if you could sort these 3 binders by hCD71:HSA, starting from the smallest number. To answer, write out the labels according to the requested order.
A. b, a, c
(b: 84.6, a: 138, c: 241)
